We begin with a simple list: items and their reported IC50.
tested on: DU-145; assay: Antiproliferative activity against human DU145 cells after 48 hrs by MTS assay; assay type: functional, cell-based; details: DU-145, 48 h
Where a name gives a salt, the structure may show the parent alone.

{"MOLECULE": "CC[C@]1(O)C[C@@H]2CN(CCc3c([nH]c4ccccc34)[C@@](C(=O)OC)(c3cc4c(cc3OC)N(C)[C@H]3[C@@](O)(C(=O)OC)[C@H](OC(C)=O)[C@]5(CC)C=CCN6CC[C@]43[C@@H]65)C2)C1 [VINBLASTINE SULFATE]", "IC50": "4.25 µM"}
{"MOLECULE": "CC(=O)O[C@@H]1[C@@H](O)[C@@H](OC(C)=O)[C@H](Oc2c(-c3ccc(O)cc3)oc3cc(O)cc(O)c3c2=O)O[C@H]1C", "IC50": "> 150 µM"}
{"MOLECULE": "CC(=O)O[C@@H]1[C@@H](O)[C@@H](O)[C@H](Oc2c(-c3ccc(O)cc3)oc3cc(O)cc(O)c3c2=O)O[C@H]1C", "IC50": "> 150 µM"}
{"MOLECULE": "COc1cc(/C=C/C(=O)CC(=O)/C=C/c2ccc(O)c(OC)c2)ccc1O", "IC50": "38.2 µM"}
{"MOLECULE": "COc1cc(/C=C/C(O)=C/C(=O)/C=C/c2ccc(O)cc2)ccc1O", "IC50": "48.1 µM"}

----------
test system: MCF7; assay: Antiproliferative activity against human MCF7 cells after 48 hrs by MTS assay; assay type: functional, cell-based; conditions: MCF7, 48 h
Where a name gives a salt, the structure may show the parent alone.
# Lookup of reported IC50 keyed by entry
ENDPOINT_LABEL: IC50 (µM)

{"COMPOUND": "CC[C@]1(O)C[C@@H]2CN(CCc3c([nH]c4ccccc34)[C@@](C(=O)OC)(c3cc4c(cc3OC)N(C)[C@H]3[C@@](O)(C(=O)OC)[C@H](OC(C)=O)[C@]5(CC)C=CCN6CC[C@]43[C@@H]65)C2)C1 [VINBLASTINE SULFATE]", "REL": "=", "REPORTED_VALUE": 24.1}
{"COMPOUND": "COc1cc(/C=C/C(=O)CC(=O)/C=C/c2ccc(O)c(OC)c2)ccc1O [CURCUMIN]", "REL": "=", "REPORTED_VALUE": 65.2}
{"COMPOUND": "CC(=O)O[C@@H]1[C@@H](O)[C@@H](O)[C@H](Oc2c(-c3ccc(O)cc3)oc3cc(O)cc(O)c3c2=O)O[C@H]1C", "REL": ">", "REPORTED_VALUE": 150}
{"COMPOUND": "CC(=O)O[C@@H]1[C@@H](O)[C@@H](OC(C)=O)[C@H](Oc2c(-c3ccc(O)cc3)oc3cc(O)cc(O)c3c2=O)O[C@H]1C", "REL": ">", "REPORTED_VALUE": 150}
{"COMPOUND": "COc1cc(/C=C/C(O)=C/C(=O)/C=C/c2ccc(O)cc2)ccc1O [DEMETHOXYCURCUMIN]", "REL": "=", "REPORTED_VALUE": 75.3}

----------
experiment: Fe2+ chelating activity of the compound incubated for 5 mins prior to ferrozine-addition measured after 10 mins by spectrophotometry; type: functional; design: concentration or dose not given beside the values
Could you please mark y for values of Activity below 50% and n for values at or above it?

{"COMPOUND_STRUCTURE_STRING": "COc1cc(/C=C/C(=O)CC(=O)/C=C/c2ccc(O)c(OC)c2)ccc1O", "GROUP_LABEL": "y"}
{"COMPOUND_STRUCTURE_STRING": "CC(=O)O[C@@H]1[C@@H](OC(C)=O)[C@@H](O)[C@H](Oc2c(-c3ccc(O)cc3)oc3cc(O)cc(O)c3c2=O)O[C@H]1C", "GROUP_LABEL": "n"}
{"COMPOUND_STRUCTURE_STRING": "CC(=O)O[C@@H]1[C@@H](O)[C@@H](O)[C@H](Oc2c(-c3ccc(O)cc3)oc3cc(O)c(-c4c(O)cc(O)c5c(=O)c(O[C@@H]6O[C@@H](C)[C@H](OC(C)=O)[C@@H](O)[C@H]6O)c(-c6ccc(O)cc6)oc45)c(O)c3c2=O)O[C@H]1C", "GROUP_LABEL": "n"}
{"COMPOUND_STRUCTURE_STRING": "CC(=O)O[C@@H]1[C@@H](O)[C@H](C)O[C@@H](Oc2c(-c3ccc(O)cc3)oc3cc(O)cc(O)c3c2=O)[C@@H]1OC(C)=O", "GROUP_LABEL": "n"}
{"COMPOUND_STRUCTURE_STRING": "O=c1c(O)c(-c2ccc(O)cc2)oc2cc(O)cc(O)c12", "GROUP_LABEL": "y"}
{"COMPOUND_STRUCTURE_STRING": "CC(=O)O[C@@H]1[C@@H](O)[C@@H](O)[C@H](Oc2c(-c3ccc(O)cc3)oc3cc(O)cc(O)c3c2=O)O[C@H]1C", "GROUP_LABEL": "y"}
